assayedSystem: TAOK3 (human)
experiment: radiometric filter-binding kinase assay, Kinase HotSpot
runParameters: compound 0.5 µM; ATP 10 µM
Measured residual activity by item
measuredProperty: residual activity (%)

testSmiles	measuredProperty	resultNumber
CC(C)(C)c1cc(C=C(C#N)C#N)cc(Br)c1O	residual activity	122
COc1ccc2c(c1)c(C1=C(c3c[nH]c4ccccc34)C(=O)NC1=O)cn2CCCN(C)C	residual activity	78.2
N#C/C(=C\c1ccc(O)c(O)c1)C(=O)NCc1ccccc1	residual activity	103
Fc1ccc(-c2nc3n(c2-c2ccncc2)CCS3)cc1	residual activity	98.9
C[C@@H]1CCN(C(=O)CC#N)C[C@@H]1N(C)c1ncnc2[nH]ccc12	residual activity	94.9
O=C1Nc2ccc(Br)cc2/C1=C\c1cc2c([nH]1)CCCC2	residual activity	75.3
c1ccc2c(-c3ccncc3)c[nH]c2c1	residual activity	103
NC(=O)c1cccc(-c2cc(Nc3ccc(OC(F)(F)F)cc3)ncn2)c1	residual activity	107
CN(C)c1ccc(/C=C2\C(=O)Nc3ccccc32)cc1	residual activity	95.1
CS(=O)(=O)CCNCc1ccc(-c2ccc3ncnc(Nc4ccc(OCc5cccc(F)c5)c(Cl)c4)c3c2)o1	residual activity	101
COc1ccc(Cl)cc1NC(=O)Nc1cc(C)nc2ccccc12	residual activity	105
O=C(c1cc2cc(O)ccc2[nH]1)c1cc2cc(O)ccc2[nH]1	residual activity	66.6
CN(C)S(=O)(=O)c1ccc2c(c1)/C(=C/c1cc3c([nH]1)CCCC3)C(=O)N2	residual activity	55.4
COc1cc2ncnc(Nc3ccc(OCc4ccccc4)cc3)c2cc1OC	residual activity	91.7
Cc1cncc2cccc(S(=O)(=O)N3CCCN(C(=O)CN)C[C@H]3C)c12	residual activity	96.2
Cc1cccc(-c2nc(C(C)(C)C)[nH]c2-c2ccc3c(c2)OCO3)n1	residual activity	102
O=C1c2ccccc2-c2nc3nnnn3nc21	residual activity	90.8
Ic1cccc(CSc2nnc(-c3ccncc3)o2)c1	residual activity	103
COc1cc(Nc2c(C#N)cnc3cc(OCCCN4CCN(C)CC4)c(OC)cc23)c(Cl)cc1Cl	residual activity	71.3
Cc1nc(-c2ccccc2)c(-c2ccncc2)o1	residual activity	99
CO[C@@H]1[C@H](N(C)C(=O)c2ccccc2)C[C@H]2O[C@]1(C)n1c3ccccc3c3c4c(c5c6ccccc6n2c5c31)C(=O)NC4	residual activity	38.1
O=C1NC(=O)c2c1c1c3ccccc3[nH]c1n1cncc21	residual activity	66.9
COc1ccc(C(=O)Nc2sc3c(c2C(N)=O)CCCC3)cc1OC	residual activity	100
N#Cc1c[nH]c2c[nH]/c(=N\Cc3cccnc3)cc2/c1=N\c1ccc(F)c(Cl)c1	residual activity	99.2
COc1cc2ncnc(Nc3ccc(Oc4ccccc4)cc3)c2cc1OC	residual activity	102
COc1ccc(S(=O)(=O)N(CCO)c2ccccc2CN(C)C/C=C/c2ccc(Cl)cc2)cc1	residual activity	91.2
CN(C)CCCn1cc(C2=C(c3c[nH]c4ccccc34)C(=O)NC2=O)c2ccccc21	residual activity	67.6
CCCCc1c(-c2ccc(OC)cc2)[nH]c2nccnc12	residual activity	103
O=C1C(Cl)=C(N2C(=O)CCC2=O)C(=O)c2ccccc21	residual activity	95.3
COc1ccc2c(c1)/C(=C/c1cnc[nH]1)C(O)=N2	residual activity	44

====

assayedSystem: MAP3K14 (human)
experiment: radiometric filter-binding kinase assay, Kinase HotSpot
runParameters: compound 0.5 µM; ATP 10 µM
Recorded measurements of residual activity, one per entry
measuredProperty: residual activity

testSmiles	assayedSystem	result
O=C(c1cc2cc(O)ccc2[nH]1)c1cc2cc(O)ccc2[nH]1	MAP3K14 (human)	77.1%
COc1cc(Nc2c(C#N)cnc3cc(OCCCN4CCN(C)CC4)c(OC)cc23)c(Cl)cc1Cl	MAP3K14 (human)	129%
CO[C@@H]1[C@H](N(C)C(=O)c2ccccc2)C[C@H]2O[C@]1(C)n1c3ccccc3c3c4c(c5c6ccccc6n2c5c31)C(=O)NC4	MAP3K14 (human)	113%
Cc1nc(-c2ccccc2)c(-c2ccncc2)o1	MAP3K14 (human)	96.2%

====

Measured residual activity, listed per entry for reference.
assayedSystem: TGFBR2 (human)
experiment: radiometric filter-binding kinase assay, Kinase HotSpot
runParameters: compound 0.5 µM; ATP 10 µM

testSmiles	residual activity / %
O=C1c2ccccc2-c2nc3nnnn3nc21	93.4
O=C(c1cc2cc(O)ccc2[nH]1)c1cc2cc(O)ccc2[nH]1	123
C[C@@H]1CCN(C(=O)CC#N)C[C@@H]1N(C)c1ncnc2[nH]ccc12	98.8
COc1ccc(S(=O)(=O)N(CCO)c2ccccc2CN(C)C/C=C/c2ccc(Cl)cc2)cc1	97.2
CC(C)(C)c1cc(C=C(C#N)C#N)cc(Br)c1O	93.8
CN(C)S(=O)(=O)c1ccc2c(c1)/C(=C/c1cc3c([nH]1)CCCC3)C(=O)N2	129
CN(C)c1ccc(/C=C2\C(=O)Nc3ccccc32)cc1	124
COc1cc2ncnc(Nc3ccc(OCc4ccccc4)cc3)c2cc1OC	121
O=C1C(Cl)=C(N2C(=O)CCC2=O)C(=O)c2ccccc21	130
CS(=O)(=O)CCNCc1ccc(-c2ccc3ncnc(Nc4ccc(OCc5cccc(F)c5)c(Cl)c4)c3c2)o1	96.1

====

Quick reference for residual activity among some compounds
assayedSystem: TAOK2 (human) (UniProt Q9UL54)
Sequence (Q9UL54 whole entry, looked up): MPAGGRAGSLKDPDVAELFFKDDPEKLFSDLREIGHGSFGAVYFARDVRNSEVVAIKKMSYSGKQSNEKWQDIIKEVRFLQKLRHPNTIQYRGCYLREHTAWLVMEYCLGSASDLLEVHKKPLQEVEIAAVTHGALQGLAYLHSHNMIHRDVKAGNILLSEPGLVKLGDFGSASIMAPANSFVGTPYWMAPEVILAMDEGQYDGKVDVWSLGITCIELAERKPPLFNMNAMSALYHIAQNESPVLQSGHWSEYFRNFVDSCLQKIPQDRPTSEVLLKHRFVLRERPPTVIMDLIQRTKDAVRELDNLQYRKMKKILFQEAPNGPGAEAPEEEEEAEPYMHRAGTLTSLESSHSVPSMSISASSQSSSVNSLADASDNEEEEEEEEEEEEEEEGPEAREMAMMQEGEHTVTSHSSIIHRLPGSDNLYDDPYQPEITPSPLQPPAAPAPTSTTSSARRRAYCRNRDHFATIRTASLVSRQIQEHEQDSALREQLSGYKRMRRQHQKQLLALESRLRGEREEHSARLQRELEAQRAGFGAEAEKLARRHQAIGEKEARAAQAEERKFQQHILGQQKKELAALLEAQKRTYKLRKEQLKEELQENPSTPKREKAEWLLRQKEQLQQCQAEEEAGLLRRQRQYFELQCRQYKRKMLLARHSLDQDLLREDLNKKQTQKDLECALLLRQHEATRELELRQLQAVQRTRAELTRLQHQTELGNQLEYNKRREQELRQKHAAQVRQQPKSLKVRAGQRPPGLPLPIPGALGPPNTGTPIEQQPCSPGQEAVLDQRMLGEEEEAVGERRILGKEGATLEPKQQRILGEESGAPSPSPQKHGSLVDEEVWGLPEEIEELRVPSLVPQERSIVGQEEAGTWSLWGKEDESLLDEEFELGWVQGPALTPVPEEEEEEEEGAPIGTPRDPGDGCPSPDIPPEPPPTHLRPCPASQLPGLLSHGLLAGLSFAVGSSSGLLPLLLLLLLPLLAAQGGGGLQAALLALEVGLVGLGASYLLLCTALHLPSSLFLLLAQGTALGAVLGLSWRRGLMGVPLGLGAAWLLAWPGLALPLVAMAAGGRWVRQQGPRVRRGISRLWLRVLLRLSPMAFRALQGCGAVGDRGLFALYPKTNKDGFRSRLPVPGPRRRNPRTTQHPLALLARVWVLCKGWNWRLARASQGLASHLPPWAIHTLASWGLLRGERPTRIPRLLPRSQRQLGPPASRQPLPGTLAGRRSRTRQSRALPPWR
experiment: radiometric filter-binding kinase assay, Kinase HotSpot
runParameters: compound 0.5 µM; ATP 10 µM
measuredProperty: residual activity (%)

testSmiles	resultNumber
Ic1cccc(CSc2nnc(-c3ccncc3)o2)c1	105
Fc1ccc(-c2nc3n(c2-c2ccncc2)CCS3)cc1	95.7
COc1ccc2c(c1)c(C1=C(c3c[nH]c4ccccc34)C(=O)NC1=O)cn2CCCN(C)C	80.8
O=C1Nc2ccc(Br)cc2/C1=C\c1cc2c([nH]1)CCCC2	89.4
O=C1NC(=O)c2c1c1c3ccccc3[nH]c1n1cncc21	89.4
COc1ccc(C(=O)Nc2sc3c(c2C(N)=O)CCCC3)cc1OC	97
COc1cc2ncnc(Nc3ccc(OCc4ccccc4)cc3)c2cc1OC	106
CS(=O)(=O)CCNCc1ccc(-c2ccc3ncnc(Nc4ccc(OCc5cccc(F)c5)c(Cl)c4)c3c2)o1	105
CN(C)c1ccc(/C=C2\C(=O)Nc3ccccc32)cc1	102
CCCCc1c(-c2ccc(OC)cc2)[nH]c2nccnc12	90.1
O=C1c2ccccc2-c2nc3nnnn3nc21	91.9
COc1ccc(Cl)cc1NC(=O)Nc1cc(C)nc2ccccc12	98.2
CN(C)S(=O)(=O)c1ccc2c(c1)/C(=C/c1cc3c([nH]1)CCCC3)C(=O)N2	89.6
COc1cc2ncnc(Nc3ccc(Oc4ccccc4)cc3)c2cc1OC	97.8
CC(C)(C)c1cc(C=C(C#N)C#N)cc(Br)c1O	96.5
c1ccc2c(-c3ccncc3)c[nH]c2c1	92.1
O=C(c1cc2cc(O)ccc2[nH]1)c1cc2cc(O)ccc2[nH]1	99
COc1ccc2c(c1)/C(=C/c1cnc[nH]1)C(O)=N2	81.8
Cc1cncc2cccc(S(=O)(=O)N3CCCN(C(=O)CN)C[C@H]3C)c12	94
N#Cc1c[nH]c2c[nH]/c(=N\Cc3cccnc3)cc2/c1=N\c1ccc(F)c(Cl)c1	86.1
COc1cc(Nc2c(C#N)cnc3cc(OCCCN4CCN(C)CC4)c(OC)cc23)c(Cl)cc1Cl	65.4
COc1ccc(S(=O)(=O)N(CCO)c2ccccc2CN(C)C/C=C/c2ccc(Cl)cc2)cc1	90.9
Cc1nc(-c2ccccc2)c(-c2ccncc2)o1	101
Cc1cccc(-c2nc(C(C)(C)C)[nH]c2-c2ccc3c(c2)OCO3)n1	87.6
Cn1c2ccccc2c2c3c(c4c5ccccc5n(CCC#N)c4c21)CNC3=O	13.3
NC(=O)c1cccc(-c2cc(Nc3ccc(OC(F)(F)F)cc3)ncn2)c1	91
N#C/C(=C\c1ccc(O)c(O)c1)C(=O)NCc1ccccc1	95.7
O=C1C(Cl)=C(N2C(=O)CCC2=O)C(=O)c2ccccc21	99.2
CN(C)CCCn1cc(C2=C(c3c[nH]c4ccccc34)C(=O)NC2=O)c2ccccc21	75.7
CO[C@@H]1[C@H](N(C)C(=O)c2ccccc2)C[C@H]2O[C@]1(C)n1c3ccccc3c3c4c(c5c6ccccc6n2c5c31)C(=O)NC4	86.2
C[C@@H]1CCN(C(=O)CC#N)C[C@@H]1N(C)c1ncnc2[nH]ccc12	100

====

# key: entry, value: residual activity
assayedSystem: STK25 (human)
experiment: radiometric filter-binding kinase assay, Kinase HotSpot
runParameters: compound 0.5 µM; ATP 10 µM

testSmiles	residual activity / %
Ic1cccc(CSc2nnc(-c3ccncc3)o2)c1	96.2
COc1ccc(S(=O)(=O)N(CCO)c2ccccc2CN(C)C/C=C/c2ccc(Cl)cc2)cc1	99.6
Fc1ccc(-c2nc3n(c2-c2ccncc2)CCS3)cc1	104
NC(=O)c1cccc(-c2cc(Nc3ccc(OC(F)(F)F)cc3)ncn2)c1	94.5
CO[C@@H]1[C@H](N(C)C(=O)c2ccccc2)C[C@H]2O[C@]1(C)n1c3ccccc3c3c4c(c5c6ccccc6n2c5c31)C(=O)NC4	55
Cc1cccc(-c2nc(C(C)(C)C)[nH]c2-c2ccc3c(c2)OCO3)n1	104
O=C1NC(=O)c2c1c1c3ccccc3[nH]c1n1cncc21	72.5
N#C/C(=C\c1ccc(O)c(O)c1)C(=O)NCc1ccccc1	101
CN(C)c1ccc(/C=C2\C(=O)Nc3ccccc32)cc1	90.2
COc1cc2ncnc(Nc3ccc(OCc4ccccc4)cc3)c2cc1OC	93.4
Cc1nc(-c2ccccc2)c(-c2ccncc2)o1	104
COc1ccc2c(c1)c(C1=C(c3c[nH]c4ccccc34)C(=O)NC1=O)cn2CCCN(C)C	55.7
COc1cc2ncnc(Nc3ccc(Oc4ccccc4)cc3)c2cc1OC	109
CC(C)(C)c1cc(C=C(C#N)C#N)cc(Br)c1O	102
N#Cc1c[nH]c2c[nH]/c(=N\Cc3cccnc3)cc2/c1=N\c1ccc(F)c(Cl)c1	95.6
COc1ccc(Cl)cc1NC(=O)Nc1cc(C)nc2ccccc12	101
COc1ccc2c(c1)/C(=C/c1cnc[nH]1)C(O)=N2	86.2
Cc1cncc2cccc(S(=O)(=O)N3CCCN(C(=O)CN)C[C@H]3C)c12	119
COc1ccc(C(=O)Nc2sc3c(c2C(N)=O)CCCC3)cc1OC	91.7
CS(=O)(=O)CCNCc1ccc(-c2ccc3ncnc(Nc4ccc(OCc5cccc(F)c5)c(Cl)c4)c3c2)o1	102
Cn1c2ccccc2c2c3c(c4c5ccccc5n(CCC#N)c4c21)CNC3=O	83.9
CCCCc1c(-c2ccc(OC)cc2)[nH]c2nccnc12	90.3
